B1: RIPK4 (parent)
chain: VSVNAQTLDGRTPLHLAAQRGHYR

# Variants of: B1
# protocolDetails: protein stability index of a GFP-peptide fusion (GPS, HEK-293T) (PSI 1-6); higher = more stable;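 also: lentivirally expressed fusions sorted by FACS into six bins by GFP to DsRed ratio, PSI derived from sequencing read proportions per bin multiplied by bin number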
# conditionSet: c terminus: a fixed tail appended
Answer Not satisfied if protein stability index is under 3, and Satisfied if it is 3 or more.

Consider the following illustrative entries.
1. VSVNAQTLDGRTPLHLWAQRGHYR [A17W]    Not satisfied
2. VSVNAQTLDGRTPLHLRAQRGHYR [A17R]    Satisfied
3. VSVNAQTLDGRTPLHLAFQRGHYR [A18F]    Not satisfied
4. VSVNAQTLDGRTPLNLAAQRGHYR [H15N]    Satisfied
5. VSVPAQTLDGRTPLHLAAQRGHYR [N4P]    Satisfied
6. VSVNAQTCDGRTPLHLAAQRGHYR [L8C]    Satisfied

Lookup: Exam item: decide whether the reported protein stability index for VSVNAQTLDGRTPLHLADQRGHYR [A18D] is at least 3.
Found: Satisfied

Lookup: Then this variant: VSVNAQTLDGRTPLYLAAQRGHYR [H15Y]
Found: Not satisfied

Lookup: Then this variant: VSVNAQTLDGRTPLHLAPQRGHYR [A18P]
Found: Satisfied

Lookup: Then this variant: VSVNAQTLDGRTPLHDAAQRGHYR [L16D]
Found: Satisfied

Lookup: Then this variant: VSVNAQTLDGRTPLHAAAQRGHYR [L16A]
Found: Satisfied

Lookup: Then this variant: VSVNAHTLDGRTPLHLAAQRGHYR [Q6H]
Found: Satisfied

Lookup: Then this variant: VSVNAQTLDGRTPLHCAAQRGHYR [L16C]
Found: Satisfied

These entries and their values trace back to the supplement of paper PMC10567573.
